# assay_comment: NCI Yeast Anticancer Drug Screen. Data for the bub3 strain (AID 167)
# condition_details: S. cerevisiae bub3 mutant strain, at 11.0 µM, hits give high values
Compounds without any hit were thinned out: in the full panel of roughly 79,000, 15% have a hit.
Would you kindly list growth inhibition for each of these molecules?
Express the result in % but write the number alone.

Fill blank: measured growth inhibition of the molecule COc1ccc(N2CN(C)CSC2=S)cc1 is ____. -12

Quick one: growth inhibition of O=C1C=CC(=O)N1c1ccc2c(c1)OCO2 ? 100

Would you kindly share the measured growth inhibition for CC[C@@]1(OC(=O)CCC(=O)O)C(=O)OCc2c1cc1n(c2=O)Cc2cc3ccccc3nc2-1 ? 4

Need growth inhibition, item Clc1c(Cl)c(Cl)c2c(nnn2C2CCCO2)c1Cl (stereo not given) -22

Would you kindly share the measured growth inhibition for Cc1cc(OCc2ccccc2)ccc1[N+](=O)[O-] ? -5

Could you share which growth inhibition value was measured for COC(=O)/C=C1/OC(c2ccc(Br)cc2)=C(Br)C1=O ? -12

Consider the molecule shown here: Oc1ccc(Br)cc1C=NC1CCCCC1 What is its recorded growth inhibition? 5

Given O=C(/C=C\c1ccc([N+](=O)[O-])o1)Nc1ccc(Cl)cc1 , state its recorded growth inhibition. 82

State the recorded growth inhibition for this entry: CN(C)CCNc1cccc2sc3ccc(O)cc3c(=O)c12 -1

Quick one: growth inhibition for CC(=O)c1cc2c(Cl)cc(Cl)cc2oc1=O ? -4

Quick one: growth inhibition for CSc1s[s+]c(SC)c1-c1ccccc1 ? 24

State the recorded growth inhibition for this entry: C=Cc1cnc([N+](=O)[O-])n1C -2

Can you share its growth inhibition? I mean this molecule: CCOC(=O)C1=C(C)NC(C)=C(C(=O)OCC)C1c1ccccc1Cl 4

Field request: growth inhibition | item: CCCCCCCCCCCCCC(=O)OC(C)CCC1CCCO1 (stereo not given) -1

Consider the molecule shown here: N#C/C(=C\c1ccccc1)c1ccccc1F What is its recorded growth inhibition? -6

Need growth inhibition of CCN1/C(=C/c2ccc3ccccc3[n+]2CC)C=Cc2ccccc21 , thanks. 96

What does the record list as growth inhibition for Nc1cc(S(N)(=O)=O)ccc1SSc1ccc(S(N)(=O)=O)cc1N ? 9

Entry under review: C/C(=N\NC(=S)NC1CCCC1)c1ccccn1 . Reported growth inhibition? 99

Please report the recorded growth inhibition for O=Nc1ccc(Nc2ccccc2)cc1 . -16

Quick one: growth inhibition of C/C(=N\NC(=S)NNC(=S)N(C)c1ccccc1)c1ccccn1 ? 97

I would be grateful if you could share the reported growth inhibition for CCOP1(=O)C=C(Sc2ccc([N+](=O)[O-])cc2[N+](=O)[O-])C(C)(C)O1 (stereo not given) . 16

Give its growth inhibition value. Item: Cc1c(-c2ccccc2)[nH]c2ccccc12 -15

What value of measured growth inhibition is listed for O=C1OC2C(O)COC2(OCc2c[nH]c3ccccc23)C1O (stereo not given) (tested in a mixture with another compound) ? 3

Quick one: growth inhibition of O=C1c2ccccc2CCC1(Br)Br ? 74

Item CCN(CC)CC(O)c1cc(-c2ccc(Cl)cc2)nc2c(-c3ccccc3)cccc12 (stereo not given) has what recorded growth inhibition? 98

Values were extracted from PubChem BioAssay (NCI).
